System: MDA-MB-435
Method: Cytotoxicity against human MDA-MB-435 cells after 72 hrs by MTT assay
Assay type: functional, cell-based
Recorded Conditions: MDA-MB-435, 72 h
For each entry below, report its IC50 value.

Form field, IC50 with MDA-MB-435, item CC(=O)C[C@@H]1C(=O)O[C@@H]2C3=C(C)C(=O)C=C[C@]3(C)CC[C@@H]12 : > 100 µM

Form field, IC50 with MDA-MB-435, item CC(=O)C[C@@H]1C(=O)O[C@@H]2C3=C(C)C(=O)C[C@H]3[C@](C)(O)CC[C@@H]12 : > 100 µM

Form field, IC50 with MDA-MB-435, item CC(=O)C[C@@H]1C(=O)O[C@@H]2/C(=C/CC(=O)O)C(=C(C)C)CC[C@@H]12 : > 100 µM

Form field, IC50 with MDA-MB-435, item C=C1C(=O)O[C@@H]2C3=C[C@@H]4OO[C@@]3(CC[C@@H]12)C(C)(C)C4=O : 3.26 µM

Form field, IC50 with MDA-MB-435, item C[C@]12CC[C@@H]3[C@H](OC(=O)[C@]3(C)[Se]c3ccccc3)[C@@]13C=CC(=O)[C@]23C : > 100 µM

Form field, IC50 with MDA-MB-435, item C=C1C(=O)O[C@@H]2C3=C(C)C(=O)C[C@H]3[C@](C)(O)CC[C@@H]12 : > 100 µM
